Assign pEC50 to each entry below.
Target: SARS-CoV-2-S1 (RBD)-His protein (Trenzyme) (SARS-CoV-2, UniProt P0DTC2 319-541)
Assay: iQue flow cytometry, antigen-coated beads
Scale note: pEC50 = -log10(concentration in M).

[ask] Please indicate pEC50 recorded for NI-607.532_C11 (antibody, V domains shown) VH: QVQLVESGGGLIQPGGSLRLSCAASGFTVSSNYMSWVRQAPGKGLEWVSVIYSGGSTYYADSVKGRFTISRDNSKNTLFLQMNSLRAEDTAVYYCARDLQYYGMDVWGQGTTVTVSS VL: DIQMTQSPSFLSASVGDRVTITCRASQGISSYLAWYQQKPGKAPKLLIYAASTLQSGVPSRFSGSGSGTEFTLTISSLQPEDFATYYCQQLDSYPPRDTFGQGTKVEIK
[reply] 8.62

[ask] Look up pEC50 of NI-607.820_B7 (antibody, V domains shown) VH: EVQLVESGGGLVQPGRSLRLSCAASGFTFDDFDMHWVRQAPGKGLEWVSGVTWNSGIIGYADSVKGRFTISRDNAKNSLYLQMNSLRAEDTALYYCAKEFYPRYGSGIRSHYFGMDVWGQGTTVTVSS VL: QSVLTQSPSASGTPGQRVTISCSGSSSNVGSNAVNWYQQLPGTAPKLLIYSNNRRPSGVPNRFSGSKSGTSASLAISGLQSDDEADYYCAAWDDSLDGPTFGGGTKLTVL and report it.
[reply] 8.05

[ask] Give the reported value of pEC50 for this record: NI-607.532_F9 (antibody, V domains shown) VH: EVQLVESGGNLIQPGGSLRLSCAASGFTVSSNYMSWVRQAPGKGLEWVSVIYSGGSTYYADSVKGRFTISRDNSRNTLYLQMNSLRAEDTAVYFCARDRVVRGVRGNGMDVWGQGTTVTVSS VL: AIRMTQSPSSLSASVGDRVTITCQASQDINIYLNWYQQRPGKAPKLLIYDASNLETGVPSRFSGSGSGTDFTFTISSLQPEDIATYYCHQYDNLPRTFGQGTKVDIK
[reply] 8.48
